GI50 listing for selected molecules.
- Test system: SNB-19
- TEST METHOD NOTES: NCI tumour cell line growth inhibition, 48 h
Active and inactive are the calls of the source. Rule as the data show it: active = GI50 up to about 1.1 µM and inactive = higher.

Consider the following illustrative entries.
MOLECULE: N/N=C(\C(=O)Nc1c(Cl)cc([N+](=O)[O-])cc1Cl)C(c1cnc2ccc([N+](=O)[O-])cc2n1)[N+](=O)[O-] (stereo not drawn)
REPORTED: > 100 µM (inactive)

MOLECULE: CC(C)C(C=O)C(O)(C(F)(F)F)C(F)(F)F (stereo not drawn)
REPORTED: > 100 µM (inactive)

MOLECULE: COC(=O)C(Cc1ccccc1)/N=C/c1c(O)c(O)c(C(C)C)c2cc(C)c(-c3c(C)cc4c(C(C)C)c(O)c(O)c(/C=N/C(Cc5ccccc5)C(=O)OC)c4c3O)c(O)c12 (stereo not drawn)
REPORTED: 31.8 µM (inactive)

MOLECULE: COc1cc([C@@H]2c3cc4c(cc3[C@H](OC3OC5COC(C(C)C)OC5C(O)C3O)C3COC(=O)[C@@H]32)OCO4)cc(OC)c1O (stereo partly drawn)
REPORTED: 14.6 µM (inactive)

MOLECULE: N=C(N)NS(=O)(=O)c1ccc(Nc2c3ccccc3nc3ccc(C(=O)Nc4ccc(S(N)(=O)=O)cc4)cc23)cc1
REPORTED: > 100 µM (inactive)

Query (molecule): N=C(N)NC1C(O)C(O)C(O)C(NC(=N)N)C1O (stereo not drawn) ; field requested: GI50
> 100 µM (inactive)

Query (molecule): CC(C)(C)OC(=O)NCCCCC1NC(=O)[C@@H]2Cc3c([nH]c4ccccc34)C(C3CCCCC3)N2C1=O (stereo partly drawn) ; field requested: GI50
57.7 µM (inactive)

Query (molecule): C=CCc1cccc2cc(C(=O)Nc3ccc(C)cc3)c(=N)oc12 ; field requested: GI50
> 100 µM (inactive)

====

- Test system: NCI-H522
- TEST METHOD NOTES: NCI tumour cell line growth inhibition, 48 h
The source made the active and inactive calls. No stated cut-off is given here; in the data, active = GI50 up to about 1.1 µM and inactive = higher.
Permitted responses: YES for active, NO for inactive

Illustrative cases are given below, each with its answer.
MOLECULE: COc1ccc(/C(Cl)=C(\C=O)c2ccc(F)cc2)cc1
STUDY TARGET: NCI-H522
ASSIGNED LABEL: NO

MOLECULE: O=c1[nH]nc(Cc2ccccc2)n1/N=C\c1ccccc1
STUDY TARGET: NCI-H522
ASSIGNED LABEL: NO

MOLECULE: COc1cc(C(N)=O)cc(NC(=O)/C=C/c2ccccc2)c1OC
STUDY TARGET: NCI-H522
ASSIGNED LABEL: NO

MOLECULE: COC(=O)C(/C(=N/NC(N)=S)C(=O)Nc1ccccc1[N+](=O)[O-])c1cnc2ccccc2n1 (stereo unspecified)
STUDY TARGET: NCI-H522
ASSIGNED LABEL: NO

MOLECULE: O=C(O)CCC(=O)c1ccc2c(c1)C(C(=O)O)CC2 (stereo unspecified)
STUDY TARGET: NCI-H522
ASSIGNED LABEL: NO

MOLECULE: Cn1c2c(c3ccccc3c1=O)C(=O)c1ccccc1-2
STUDY TARGET: NCI-H522
ASSIGNED LABEL: NO

MOLECULE: O=C(Nc1c(C(F)(F)F)cc(-c2ccccc2)[nH]c1=O)N1CCOCC1
STUDY TARGET: NCI-H522
ASSIGNED LABEL: NO

MOLECULE: O=C1COC(c2ccccc2O)=NN1CCCN1CCCC1
STUDY TARGET: NCI-H522
ASSIGNED LABEL: NO

MOLECULE: O=C1c2ccccc2-c2ccc(/N=N/c3c(O)ccc4ccccc34)cc21
STUDY TARGET: NCI-H522
ASSIGNED LABEL: NO

MOLECULE: CC(C)(C)[C@@H]1NC(=O)CN1C(=O)OCc1ccccc1
STUDY TARGET: NCI-H522
ASSIGNED LABEL: NO

Hey, what did the test say about CC(=O)Oc1cccc2c1C(=O)C(Br)(Br)CCC2 ?
NO

Hey, what did the test say about C=CCC1(C(=O)OC(C)(C)C)C(OC)=C(C(=O)OC(C)(C)C)C2C1C(C(=O)OC(C)(C)C)=C(OC)C2(CC=C)C(=O)OC(C)(C)C (stereo unspecified) ?
NO

Hey, what did the test say about Cc1ccc(NC(=O)/C(=N/NC(=O)CC#N)C2C(=O)N(c3ccccc3)N=C2N)cc1C (stereo unspecified) ?
NO

Hey, what did the test say about CC(C)(C)OC(=O)NCCCCC1NC(=O)[C@@H]2Cc3c([nH]c4ccccc34)C(C3CCCCC3)N2C1=O (stereo partly specified) ?
NO

Hey, what did the test say about O=P1(c2ccccc2)C(c2ccccc2)CCC1c1ccccc1 (stereo unspecified) ?
NO

Where do these numbers come from? They come from ChEMBL document CHEMBL1201862.
